All values here come from patent US20220242939A1.

ASSAY TARGET: T1, A199 N-terminal neo-epitope peptide AGQPLQ-Acp-C (SEQ ID NO:51) conjugated to BSA (human, not fully specified (residue 8); printed as AGQPLQ-Acp-C; also: C-terminal Cys conjugated to BSA carrier)
T1 construct: BSA carrier; also called A199-BSA peptide
T1 peptide: AGQPLQ[Ahx]C
TEST: direct ELISA, A199-BSA peptide coated at 1 µg/ml
Non-standard residues stand in square brackets, D forms with d. No end group written: not given here. Ahx = NCCCCCC(=O)O
MEASURED PARAMETER: EC50 (ng/mL)
The answer is to be given in ng/mL; state only the numeric part.

Observe how each entry below is paired with its result.
BINDER: 67G3, monoclonal anti-A199 antibody (antibody, IgG2b, V domains shown) VH: QVQLQQPGTELVKPGASVKLSCKASGYTFTRYWLHWVKQRPGQGLEWIGNINPTNGGANYNEKFKNKATLTVDKSSSTAYMQLSSLTSEDSAVYYCSRGAYDYDCDYWGQGTTLTVSS VL: DVLMTQTPLSLPVSLGDQASISCRSSQRIVHSNGNIYLQWYLQKPGQSPKLLIYKVSNRFSGVPDRFSGSGSGTDFTLKISRVEAEDLGVYYCFQGSHVPYTFGGGTKLEIK
UOM: ng/mL
EC50: 4.4
//
BINDER: 36A12, monoclonal anti-A199 antibody (antibody, IgG1, V domains shown) VH: EVKLEESGGGLVQPGGSMKLSCVASGFTFSNYWMNWVRQSPEKGLEWIGEIKLKSNNYGTHYAESVKGRFTISRDDSKSSVYLQMNNLRAEDTGIYYCTRDTEVVAGAHWGQGTLVTVSA VL: NIMMTQSPSSLAVSAGEKVTMSCKSSQSVLYNSNQKNYLAWYQQKPGQSPKLLIYWASTRDSGVPDRFTGSGSGTDFTLTISSVRAEDLAVYFCQQYLSSLTFGAGTKLELK
UOM: ng/mL
EC50: 5.1

Moving on to the next binder.
// returns reported EC50 for input 38G9, monoclonal anti-A199 antibody (antibody, IgG1, V domains shown) VH: EVKLEESGGGLVQPGGSMKLSCVASGFTFSNYWMNWVRQSPEKGLEWVGEIKLKSNNYGTHYAESVKGRFTISRDDSKSSVYLQMNNLRAEDTGIYYCTRDTEVVAGAHWGQGTLVTVSA VL: NIMMTQSPSSLAVSAGEKVTMSCKSSQSVLYSSNQKNYLAWYQQKPGQSPKLLIYWASTRESGVPDRFTGSGSGTDFTLTISSVQAEDLAVYFCQQYLSSLTFGAGTKLELK
4.6
